Measured IC50 by item
# TARGET OR SYSTEM: [3H]ifenprodil binding, adult rat forebrain membranes (NMDA receptor) (Rattus norvegicus, UniProt P35439+Q00960)
# Construct: membrane fraction was prepared from frozen adult rat forebrains; tissue Zivic-Miller Laboratories, Inc
# Sequence (Q00960 27-1482, other chains not shown): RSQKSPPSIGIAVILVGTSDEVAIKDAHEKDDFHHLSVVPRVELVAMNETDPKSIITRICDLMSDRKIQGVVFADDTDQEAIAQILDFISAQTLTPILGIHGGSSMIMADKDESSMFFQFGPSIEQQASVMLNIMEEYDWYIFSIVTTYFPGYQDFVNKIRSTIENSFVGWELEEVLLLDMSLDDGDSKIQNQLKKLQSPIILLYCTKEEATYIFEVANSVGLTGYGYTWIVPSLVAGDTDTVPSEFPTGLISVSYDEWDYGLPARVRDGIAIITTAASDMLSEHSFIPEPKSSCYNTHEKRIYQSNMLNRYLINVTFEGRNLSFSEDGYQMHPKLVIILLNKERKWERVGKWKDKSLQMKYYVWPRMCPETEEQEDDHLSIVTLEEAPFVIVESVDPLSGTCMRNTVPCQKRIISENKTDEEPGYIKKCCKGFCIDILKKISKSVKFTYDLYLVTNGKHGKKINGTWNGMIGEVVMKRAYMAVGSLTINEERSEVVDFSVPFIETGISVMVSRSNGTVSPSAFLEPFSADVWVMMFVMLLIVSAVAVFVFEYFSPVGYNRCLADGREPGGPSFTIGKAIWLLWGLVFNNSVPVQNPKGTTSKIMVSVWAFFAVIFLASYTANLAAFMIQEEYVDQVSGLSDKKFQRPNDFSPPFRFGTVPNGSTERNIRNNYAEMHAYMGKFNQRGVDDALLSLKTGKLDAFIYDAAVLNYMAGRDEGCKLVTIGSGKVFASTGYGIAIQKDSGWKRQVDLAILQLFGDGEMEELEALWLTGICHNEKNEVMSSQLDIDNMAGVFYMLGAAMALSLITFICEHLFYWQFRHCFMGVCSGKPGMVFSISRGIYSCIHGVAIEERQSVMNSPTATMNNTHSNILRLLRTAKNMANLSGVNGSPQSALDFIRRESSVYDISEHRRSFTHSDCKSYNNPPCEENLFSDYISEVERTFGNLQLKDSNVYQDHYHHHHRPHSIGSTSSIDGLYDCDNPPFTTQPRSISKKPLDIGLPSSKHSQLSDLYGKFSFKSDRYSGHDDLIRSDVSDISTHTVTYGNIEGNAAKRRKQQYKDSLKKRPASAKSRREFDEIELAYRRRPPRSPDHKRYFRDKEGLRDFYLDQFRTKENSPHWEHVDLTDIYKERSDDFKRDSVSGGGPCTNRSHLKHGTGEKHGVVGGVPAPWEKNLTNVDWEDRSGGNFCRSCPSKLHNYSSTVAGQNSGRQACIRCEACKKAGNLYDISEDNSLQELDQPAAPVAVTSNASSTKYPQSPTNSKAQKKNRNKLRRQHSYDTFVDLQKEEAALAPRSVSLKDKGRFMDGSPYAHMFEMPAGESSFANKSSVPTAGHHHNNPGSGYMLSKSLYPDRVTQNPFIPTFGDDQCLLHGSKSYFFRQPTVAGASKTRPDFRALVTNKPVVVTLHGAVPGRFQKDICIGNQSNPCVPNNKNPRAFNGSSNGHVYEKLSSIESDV
# RUN DESCRIPTION: [3H]Ifenprodil binding assay
# CONDITION CONTEXT: 4 nM [3H]-ifenprodil, 2 hours at room temperature, pH 7.4
PARAMETER: IC50 (nM)

| MOL SMILES | RECORDED MEASUREMENT |
| --- | --- |
| C[C@H](N[C@H]1CC[C@@H](c2ccccc2)CC1)[C@@H](O)c1ccc(O)cc1 | 45 |
| C[C@H](N[C@H]1CC[C@H](c2ccccc2)CC1)[C@@H](O)c1ccc(O)cc1 | 1300 |
| Oc1ccc(CCCN[C@H]2CC[C@H](c3ccccc3)CC2)cc1 | 84 |
